This collection of values is drawn from patent US20120021972A1.

Target: human glucagon receptor (human, UniProt P47871 26-477)
Assay: cell-based or functional assay
Non-standard residues stand in square brackets, D forms with d. No end group written: not given here. Bip(2'-Et-4'-OMe) = CCc1cc(OC)ccc1-c1ccc(C[C@H](N)C(=O)O)cc1; αMePhe(2-F) = C[C@](N)(Cc1ccccc1F)C(=O)O; hhPhe = N[C@@H](CCCc1ccccc1)C(=O)O; aThr = C[C@H](O)[C@H](N)C(=O)O; CNB = not defined here; Aib = CC(C)(N)C(=O)O
Quick reference for inhibition of cAMP production, 10 nM among some binders
Supply the numeric figure in pmol/ml/µg prt, leaving out any unit text.

{"columns": ["BINDER", "TEST_READOUT", "READING_UNIT", "RECORDED_NUMBER"],
 "data": [
  ["H[Aib][CNB]G[aThr][αMePhe(2-F)][aThr]SD[Bip(2'-Et-4'-OMe)][hhPhe] (reading uncertain; also: reduced (CH2) bonds between 9-10 and 10-11) [Seq. ID. No. 202: H-Aib-(CNB)-G-T(allo)-(α-Me-2F-Phe)-T(allo)-SD-(CH2)-Bip(OMe)-(CH2)-(APPA)]", "inhibition of cAMP production, 10 nM", "pmol/ml/µg prt", 6]
]}

Now for a further binder.
Need inhibition of cAMP production, 10 nM, item H[Aib]QG[aThr][αMePhe(2-F)][aThr]SD[Bip(2'-Et-4'-OMe)][hhPhe] (also: reduced (CH2) bond between 10 and 11) [Seq. ID. No. 189: H-Aib-QG-T(allo)-(α-Me-2F-Phe)-T(allo)-SD-Bip(OMe)-(CH2)-(APPA)] 1
